# study-target: Siglec-4a (MAG)
# Sequence (P20917 1-627): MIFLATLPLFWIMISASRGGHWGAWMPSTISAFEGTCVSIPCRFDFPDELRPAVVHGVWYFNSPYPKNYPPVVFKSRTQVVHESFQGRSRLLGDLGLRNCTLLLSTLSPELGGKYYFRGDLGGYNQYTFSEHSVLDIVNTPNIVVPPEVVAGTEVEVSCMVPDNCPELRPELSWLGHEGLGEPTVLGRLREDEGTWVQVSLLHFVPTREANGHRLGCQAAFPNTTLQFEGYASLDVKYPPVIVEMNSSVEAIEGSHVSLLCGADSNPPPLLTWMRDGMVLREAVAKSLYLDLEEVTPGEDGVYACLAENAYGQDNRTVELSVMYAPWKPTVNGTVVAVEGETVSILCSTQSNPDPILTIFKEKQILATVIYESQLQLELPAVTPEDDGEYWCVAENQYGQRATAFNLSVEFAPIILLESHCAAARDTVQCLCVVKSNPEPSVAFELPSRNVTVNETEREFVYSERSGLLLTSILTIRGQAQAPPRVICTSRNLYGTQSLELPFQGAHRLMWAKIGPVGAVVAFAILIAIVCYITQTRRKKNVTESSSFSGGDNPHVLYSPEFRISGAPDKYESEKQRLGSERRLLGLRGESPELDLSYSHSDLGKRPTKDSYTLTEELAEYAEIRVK
# protocol: Hapten inhibition assay, Siglec-4a (MAG)
# cond: quotient IC50 reference compound / IC50 compound
readout-name: Siglec-4a (MAG) rIP

# example entries with known answers
Input line: Give the measured Siglec-4a (MAG) rIP for CO[C@]1(C(=O)O)C[C@H](O)[C@@H](NC(C)=O)[C@H]([C@H](O)[C@H](O)CNC(=O)C(c2ccccc2)c2ccccc2)O1
Output line: 31

Input line: Indicate the recorded Siglec-4a (MAG) rIP value for this compound: CCC(=O)NC1C(O)CC(OCc2ccccc2)(C(=O)O)OC1C(O)C(O)CO (centres unmarked)
Output line: 4.8

(A) CS[C@]1(C(=O)O)C[C@H](O)[C@@H](NC(C)=O)[C@H]([C@H](O)[C@H](O)CO)O1
(B) CO[C@]1(C(=O)O)C[C@H](O)[C@@H](NC(C)=O)[C@H]([C@H](O)[C@H](O)CNC(=O)Cc2ccc3ccccc3c2)O1
Input line: Which has the smaller recorded Siglec-4a (MAG) rIP, A or B ? Response format: the label of the selected entry.
Output line: A

(1) CO[C@]1(C(=O)O)C[C@H](O)[C@@H](NC(C)=O)[C@H]([C@H](O)[C@H](O)CO)O1 [Methyl-α-Neu5Ac, reference compound]
(2) CCOc1c(N[C@H]2[C@H]([C@H](O)[C@H](O)CO)O[C@@](OC)(C(=O)O)C[C@@H]2O)c(=O)c1=O
(3) CO[C@]1(C(=O)O)C[C@H](O)[C@@H](NC(C)=O)[C@H]([C@H](O)[C@H](O)CNC(=O)c2ccccc2)O1
(4) COC1(C(=O)O)CC(O)C(NC(C)=O)C(C(O)C(O)CNC(=O)c2c(F)c(F)c(F)c(F)c2F)O1 (centres unmarked)
Input line: Please rank these compounds by Siglec-4a (MAG) rIP in descending order. Give your ranking as a list of the labels in the requested order.
Output line: 3, 4, 1, 2
(3: 704, 4: 42, 1: 1.0, 2: 0.5)

---

# study-target: Siglec-4a (MAG) (UniProt P20917)
# Sequence (P20917 1-627): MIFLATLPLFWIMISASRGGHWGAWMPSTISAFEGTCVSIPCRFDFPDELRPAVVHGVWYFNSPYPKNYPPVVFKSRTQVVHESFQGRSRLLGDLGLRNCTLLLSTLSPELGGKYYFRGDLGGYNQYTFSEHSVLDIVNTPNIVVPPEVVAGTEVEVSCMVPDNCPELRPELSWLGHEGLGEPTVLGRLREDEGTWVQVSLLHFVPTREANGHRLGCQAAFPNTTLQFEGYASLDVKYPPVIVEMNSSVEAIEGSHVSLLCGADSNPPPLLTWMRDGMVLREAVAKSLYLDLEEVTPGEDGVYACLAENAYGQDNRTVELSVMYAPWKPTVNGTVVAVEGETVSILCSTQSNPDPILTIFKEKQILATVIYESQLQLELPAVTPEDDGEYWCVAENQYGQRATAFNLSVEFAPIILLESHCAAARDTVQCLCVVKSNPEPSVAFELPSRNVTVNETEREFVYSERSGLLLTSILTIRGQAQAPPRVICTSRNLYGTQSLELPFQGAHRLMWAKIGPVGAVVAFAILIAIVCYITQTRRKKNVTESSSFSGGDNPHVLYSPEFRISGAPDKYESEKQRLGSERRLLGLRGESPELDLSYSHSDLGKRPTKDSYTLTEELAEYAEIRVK
# protocol: Hapten inhibition assay, Siglec-4a (MAG)
# cond: read-out: Siglec-4a (MAG) IC50; bounds given in mM
readout-name: IC50

Input line: Fill in IC50 for record COC1(C(=O)O)CC(O)C(NC(C)=O)C(C(O)C(O)CNC(=O)CNC(=O)CNC(=O)CN)O1 (stereo not shown)
Output line: > 10 mM

Input line: State, in one line, measured IC50 of O=C(NC1C(O)CC(OCc2ccccc2)(C(=O)O)OC1C(O)C(O)CO)c1ccccc1 (stereo not shown)
Output line: < 10 mM

Input line: Indicate its recorded IC50; the compound in question is COC1(C(=O)O)CC(O)C(NC(C)=O)C(C(O)C(O)CSC)O1 (stereo not shown)
Output line: > 10 mM

Then there is this compound:
Input line: Using the record for COC1(C(=O)O)CC(O)C(O)C(C(O)C(O)CO)O1 (stereo not shown) , state its measured IC50.
Output line: > 1 mM

---

# study-target: Siglec-1 (sialoadhesin) (Mus musculus)
# Sequence (Q62230 20-136 limits assumed): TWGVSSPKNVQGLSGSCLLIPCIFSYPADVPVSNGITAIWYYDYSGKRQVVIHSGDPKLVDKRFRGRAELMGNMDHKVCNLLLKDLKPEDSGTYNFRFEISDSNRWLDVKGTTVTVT
# protocol: Hapten inhibition assay, Siglec-1 (sialoadhesin)
# Assay type: binding
# cond: unit inferred
readout-name: IC50 (mM)

Input line: # return recorded IC50 for input CCOc1c(NC[C@@H](O)[C@@H](O)[C@@H]2O[C@@](OC)(C(=O)O)C[C@H](O)[C@H]2NC(C)=O)c(=O)c1=O
Output line: 1.33

(P) CO[C@]1(C(=O)O)C[C@H](O)[C@@H](NC(C)=O)[C@H]([C@H](O)[C@H](O)CNC(=O)C(c2ccccc2)c2ccccc2)O1
(Q) CO[C@]1(C(=O)O)CC(O)[C@@H](NC(C)=O)C([C@@H](O)[C@H](O)CNC(=O)c2ccc(-c3ccccc3)cc2)O1 (stereo partly shown)
(R) CO[C@]1(C(=O)O)C[C@H](O)[C@@H](NC(C)=O)[C@H]([C@H](O)[C@H](O)CNC(=O)c2cccc3ccccc23)O1
Input line: List from greatest to least IC50. List the labels in the requested order.
Output line: P, R, Q
(P: 4.4 mM, R: 3 mM, Q: 0.052 mM)

---

# study-target: Siglec-2 (human CD22) (Homo sapiens)
# protocol: Hapten inhibition assay, Siglec-2 (human CD22)
# Assay type: binding
# cond: bounds given in mM
readout-name: IC50

Input line: State IC50 (Siglec-2 (human CD22) (Homo sapiens)) of COC1(C(=O)O)CC(O)C(O)C(C(O)C(O)CO)O1 (stereo not shown) .
Output line: > 1 mM

---

# study-target: Siglec-2 (human CD22) (Homo sapiens, UniProt P20273)
# Sequence (P20273 20-138 limits assumed): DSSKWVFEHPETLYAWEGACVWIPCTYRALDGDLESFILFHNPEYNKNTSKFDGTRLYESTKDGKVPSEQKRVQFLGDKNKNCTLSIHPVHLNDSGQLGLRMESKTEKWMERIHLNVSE
# protocol: Hapten inhibition assay, Siglec-2 (human CD22)
# Format: binding
# cond: quotient IC50 reference compound / IC50 compound
readout-name: Siglec-2 (human CD22) rIP

Input line: # return recorded Siglec-2 (human CD22) rIP for input COC1(C(=O)O)CC(O)C(NC(C)=O)C(C(O)C(O)CNC(=O)c2cccc(Oc3ccccc3)c2)O1 (centres unmarked)
Output line: 111

Input line: Read off the recorded Siglec-2 (human CD22) rIP for CO[C@]1(C(=O)O)C[C@H](O)[C@@H](NC(C)=O)[C@H]([C@H](O)[C@H](O)CNC(=O)c2ccccc2)O1
Output line: 5.7

Input line: Check the records and state Siglec-2 (human CD22) rIP for CO[C@]1(C(=O)O)C[C@H](O)[C@@H](NC(C)=O)[C@H]([C@H](O)[C@H](O)CNC(=O)c2cccnc2)O1
Output line: 2.3

(I) CO[C@]1(C(=O)O)C[C@H](O)[C@@H](NC(C)=O)[C@H]([C@H](O)[C@H](O)CO)O1 [Methyl-α-Neu5Ac, reference compound]
(II) CCOc1c(N[C@H]2[C@H]([C@H](O)[C@H](O)CO)O[C@@](OC)(C(=O)O)C[C@@H]2O)c(=O)c1=O
(III) COc1ccc(C(=O)NC[C@@H](O)[C@@H](O)[C@@H]2O[C@@](OC)(C(=O)O)C[C@H](O)[C@H]2NC(C)=O)cc1
(IV) CO[C@]1(C(=O)O)C[C@H](O)[C@@H](NC(C)=O)[C@H]([C@H](O)[C@H](O)CNC(=O)C2CCCCC2)O1
(V) CO[C@]1(C(=O)O)C[C@H](O)[C@@H](NC(C)=O)[C@H]([C@H](O)[C@H](O)CNC(=O)Cc2ccc(-c3ccccc3)cc2)O1
Input line: Order field: Siglec-2 (human CD22) rIP | Direction: descending (largest first) Output the labels ranked as instructed.
Output line: V, III, IV, II, I
